All figures here come from patent US20250042889A1.

Biological target: SARS-COV-2 3CLpro/Mpro protease (Severe acute respiratory syndrome coronavirus 2 (2019-nCoV) (SARS-CoV-2))
Assay: Inhibitory effect on SARS-COV-2 3CLpro/Mpro protease by fluorescence resonance energy transfer
Type: biochemical
Conditions: activity intervals A-D, read-out: IC50 (nM), Inhibition on SARS-CoV-2 3CLpro/Mpro protease
Outcome measure: IC50

Example results:
[[record]]
compound = "Cc1cc(C(=O)N2C[C@H](Nc3c(C(=O)N4CCC5(CCC5)CC4)cc(Br)cc3[N+](=O)[O-])C3(CC3)C2)cc(=O)[nH]1 [Example 95]"
measurement = "10 to 50 nM"

[[record]]
compound = "O=C(c1cc(Br)cc([N+](=O)[O-])c1N[C@@H]1CCCN(C(=O)[C@H]2CNCC(F)(F)C2)C1)N1CCCCC1 [Example 320]"
measurement = "10 to 50 nM"


Problem: Consider the compound shown here: CNc1cncc(C(=O)N2CC(Nc3c(C(=O)N4CCN(CC(F)(F)F)C(=O)C4)cc(Br)cc3[N+](=O)[O-])C(F)(F)C2)c1 (stereo not shown) [Example 99] What is its recorded IC50?
Solution: 100 to 200 nM

Problem: Now the compound CNc1cncc(C(=O)N[C@H]2CCCC[C@H]2Nc2c(C(=O)N3C[C@H](C)O[C@@H](C)C3)cc(Br)cc2[N+](=O)[O-])c1 [Example 217]
Solution: 50 to 100 nM

Problem: Now the compound CNc1cncc(C(=O)N2CCC[C@@H](Nc3c(C(=O)N4CCC[C@H](C)C4)cc(Br)cc3[N+](=O)[O-])C2)c1 [Example 256]
Solution: 10 to 50 nM

Problem: Now the compound CNc1cncc(C(=O)N2CCC[C@@H](Nc3c(C(=O)N4CCc5oc(C)nc5C4)cc(Br)cc3[N+](=O)[O-])C2)c1 [Example 316]
Solution: 10 to 50 nM

Problem: Now the compound CNc1cncc(C(=O)N2C[C@H](Nc3c(C(=O)N4C[C@@H](C)O[C@@H](C)C4)cc(Br)cc3[N+](=O)[O-])[C@@H](OCc3ccccn3)C2)c1 [Example 458]
Solution: 10 to 50 nM

* * *

Parameter: IC50. Scope: all listed entries.
Biological target: SARS-COV-2 3CLpro/Mpro protease (Severe acute respiratory syndrome coronavirus 2 (2019-nCoV) (SARS-CoV-2), UniProt P0DTD1)
Assay: Inhibitory effect on SARS-COV-2 3CLpro/Mpro protease by fluorescence resonance energy transfer
Format: biochemical
Conditions: activity intervals A-D, read-out: IC50 (nM), Inhibition on SARS-CoV-2 3CLpro/Mpro protease

Example results:
[[record]]
compound = "Cc1cc(C(=O)N2CCC[C@@H](Nc3c(C(=O)N4CCC(F)(F)CC4)cc(Br)cc3[N+](=O)[O-])C2)cc(=O)[nH]1 [Example 108]"
outcome_measure = "IC50"
measurement = "10 to 50 nM"

[[record]]
compound = "O=C(N[C@H]1CCCC[C@H]1Nc1c(C(=O)N2CCC3(CC2)COC3)cc(Br)cc1[N+](=O)[O-])c1cncc2cc(Cl)ccc12 [Example 132]"
outcome_measure = "IC50"
measurement = "10 to 50 nM"


# context switch: different compound, same IC50
Problem: Consider the compound shown here: O=C(c1cccnc1)N1CCC[C@@H](Nc2c(C(=O)N3CCCCC3)cc(Br)cc2[N+](=O)[O-])C1 [Example 4] What is its recorded IC50?
Solution: 50 to 100 nM
